- Tested on: Cryptococcus neoformans
- assay_name: Antifungal activity against Cryptococcus neoformans KCCM 50564 after 1 day by twofold broth dilution method
- Format: functional
- condition_summary: KCCM 50564, 24 h
Measured MIC values are reported for all entries that follow.
Give just the numeric value; mg/L need not be written.

Past entries and their recorded results:
| chemical_string | measured |
| --- | --- |
| Cc1ccc(SC2=C(Sc3ccc(C)cc3)C(=O)c3ncncc3C2=O)cc1 | 50 |
| O=C1C(Sc2ccc(F)cc2F)=C(Sc2ccc(F)cc2F)C(=O)c2ncncc21 | 1.6 |
| O=C1C(Sc2ccc(F)cc2)=C(Sc2ccc(F)cc2)C(=O)c2ncncc21 | 1.6 |
| CCSC1=C(SCC)C(=O)c2ncncc2C1=O | 6.3 |
| Nc1nc(=O)[nH]cc1F | 12.5 |

Now look at this one.
Param readout= MIC; system= Cryptococcus neoformans; entry= `O=C1C(Sc2cccc(F)c2)=C(Sc2cccc(F)c2)C(=O)c2ncncc21` ; returns value.
1.6
